# assay remarks: Cytotoxicity in RAW 264.7 macrophages (resazurin)
# Type: cell-based
# condition label: mouse, RAW 264.7 macrophages (ATCC TIB71), 50 μM to 800 μM, read-out: RAW 264.7 Macrophage CC50
measured parameter: CC50 at 72 h (µM)

>>> reading("O=C(Cn1ccnc1[N+](=O)[O-])NCc1ccccc1 [BZ, benznidazole, reference compound]")
555
>>> reading("CCCCNc1c(N(C)CCCN(C)C)c(=O)c1=O [S, N, N’-Squaramide 17]")
1650

====

# assay remarks: Cytotoxicity in VERO cells (resazurin)
# Format: cell-based
# condition label: African green monkey, VERO cells (ATCC CCL81), 50 μM to 800 μM, read-out: VERO Cell CC50
measured parameter: CC50 at 72 h

>>> reading("CCCCNc1c(N(C)CCCN(C)C)c(=O)c1=O [S, N, N’-Squaramide 17]")
"736 µM"
>>> reading("O=C(Cn1ccnc1[N+](=O)[O-])NCc1ccccc1 [BZ, benznidazole, reference compound]")
"284 µM"
